System: KM20L2 colon
Assay: NCI tumour cell line growth inhibition, 48 h
Task for the reader: assign each of the following molecules its reported TGI.
Answers are plain numbers, in µM.

Take a look at these entries with their results.
Lab note: need TGI with KM20L2 colon for entry CC1C(O)C2(Oc3cc4c(c5c3[C@@H](CC5O)[C@H]2C)CCC2Cc3nc5c(nc3C[C@@]42C)CC2CCC3C4=C[C@H]6O[C@@]7(O[C@@](C)(CO)C[C@@H]7O)C(C)[C@@]6(O)[C@]4(C)[C@@H](O)CC3[C@]2(C)C5)OC1(C)C (some centres undefined) , please look it up.
0.491

Lab note: need TGI with KM20L2 colon for entry CC1=C(N2CC2)C(=O)c2nc3n(c2C1=O)CCC3OC(=O)CCl (centres undefined) , please look it up.
0.547

Lab note: need TGI with KM20L2 colon for entry O=c1cc(-c2ccccc2)[nH]c2cc(O)ccc12 , please look it up.
40.4

Please look at the following molecule next.
Lab note: need TGI with KM20L2 colon for entry C=C1CC2OC2(C(=O)O[C@H]2CCC3[C@@H]4CCC5=CC(=O)CC[C@]5(C)C4CC[C@@]32C)C1=O (some centres undefined) , please look it up.
16.2

====

System: DMS 273 small cell lung
Assay: NCI tumour cell line growth inhibition, 48 h
Task for the reader: assign each of the following compounds its reported log10 of TGI.
Recall that a logarithmic scale is used here: each number is log10 of TGI in µM.

Take a look at these entries with their results.
Any idea what its log10 of TGI is? The compound is CCOc1ccc2nc(NC(=O)c3c/c(=N\NC(=O)C[N+](C)(C)C)c4ccc(O)cc4o3)sc2c1
1.46

Any idea what its log10 of TGI is? The compound is NC(=O)NN=C(CS)CS
1.65

Any idea what its log10 of TGI is? The compound is O=S(=O)(Sc1ccc(Cl)cc1)c1ccc(Cl)cc1
1.47

List log10 of TGI for every entry below, keeping the order given.
1. COc1ccc(C2=C(Cl)c3cc(OC)c(OC)cc3C2Cl)cc1OC (stereo unspecified)
2. NC(=O)CCCC(NCc1c2ccccc2nc2ccccc12)C(=O)O (stereo unspecified)
3. CS(=O)(=O)Oc1cccc(/C=N/N=C(\N)NO)c1
4. CC1=C(N2CC2)C(=O)c2nc3n(c2C1=O)CCC3OC(=O)CCl (stereo unspecified)
5. CCC1CN2CCc3cc(OC)c(OC)cc3C2CC1CC1c2cc(OC)c(OC)cc2CCN1C(=O)C1CCCN1C(=O)OCc1ccccc1 (stereo unspecified)

1.48
1.94
1.82
-0.89
1.48

Any idea what its log10 of TGI is? The compound is O=c1cc(-c2ccccc2)[nH]c2cc(O)ccc12
1.94

====

Tested on: SNB-75 CNS
Experiment: NCI tumour cell line growth inhibition, 48 h
assay.endpoint: TGI (µM)
One number for each entry, in µM.

Take a look at these entries with their results.
Lab note: need TGI with SNB-75 CNS for entry O=C1C=C(Br)c2c(-c3ccccc3)oc3cccc1c23 , please look it up.
42.5

Lab note: need TGI with SNB-75 CNS for entry O=C(c1ccccc1)C(CN1CCOCC1)c1ccccc1 (stereo not given) , please look it up.
12

More entries:
Lab note: need TGI with SNB-75 CNS for entry C=CC(=O)N1CCN(c2ccc3cccc(NC(=O)c4cnc(C)cn4)c3n2)CC1 , please look it up.
9.66

====

Test system: MDA-MB-435
Task for the reader: assign each of the following compounds its reported GI50.

Lab note: need GI50 with MDA-MB-435 for entry O=c1[nH]c2ccccc2nc1-c1c[nH]c2ccccc12 , please look it up.
> 100 µM

List GI50 for every entry below, keeping the order given.
1. Cc1cc2c3ccc(C)[n+](C)c3ccc2n1C
2. C=C1CC[C@@H]2[C@](C)(COC(C)=O)[C@@H](O)CC[C@@]2(C)[C@@H]1COc1ccc2ccc(=O)oc2c1
3. CN(C)c1ccc(/C=C\c2cccc[n+]2C)cc1
4. C[C@]12CCC3[C@@H](CC[C@@H]4c5nonc5CC[C@]34C)C1CCC(=O)N2 (stereo not given in full)

1: 5.12 µM; 2: > 100 µM; 3: 4.16 µM; 4: > 100 µM

====

Task for the reader: assign each of the following compounds its reported TGI.
Tested on: NCI-H522 lung
Test: NCI tumour cell line growth inhibition, 48 h

List TGI for every entry below, keeping the order given.
1. NC(N)=N/N=C/c1c(-c2ccccc2)nc2n1ccc1nc(-c3ccccc3)c(/C=N/N=C(N)N)n12
2. C=C1COC(/C=C(\C)CC/C=C(\C)CCl)C1 (stereo not given)

1. > 100 µM
2. > 100 µM

List TGI for every entry below, keeping the order given.
1. COc1ccc(NC2Oc3cc4c(cc3C(c3cccc(OC)c3OC)C2C)OCO4)cc1 (stereo not given)
2. COc1cccc(C=Nc2cc(C)ccn2)c1O.COc1cccc(C=Nc2cc(C)ccn2)c1O.[Cu]
3. c1ccc2c(C3NCCc4[nH]cnc43)cccc2c1 (stereo not given)

1. > 100 µM
2. 52.3 µM
3. > 100 µM

====

Tested on: HCT-116 colon
Test: NCI tumour cell line growth inhibition, 48 h
assay.endpoint: TGI

Lab note: need TGI with HCT-116 colon for entry CCOC1(COP(=O)(OCc2ccccc2)OCc2ccccc2)COC(COP(=O)(OCc2ccccc2)OCc2ccccc2)(OCC)CO1 (configuration not stated) , please look it up.
> 100 µM

List TGI for every entry below, keeping the order given.
1. CCCC(=O)NC1=C(NCC)C(=O)c2ccccc2C1=O
2. CCOC(=O)c1c(N2CCCC2)nsc1Nc1ccccc1
3. O=C(CN1CCNCCN(CC(=O)N2CCCCC2)CCNCC1)N1CCCCC1
4. CCC(NC(C)c1ccccc1)C(O)c1ccc(OCc2ccccc2)c(OCc2ccccc2)c1 (configuration not stated)
5. COc1ccc(NS(=O)CCCc2ccccc2)cc1 (configuration not stated)

> 100 µM
> 100 µM
> 100 µM
27.7 µM
> 100 µM

====

System: SN12C renal
Test: NCI tumour cell line growth inhibition, 48 h
assay.endpoint: TGI

Take a look at these entries with their results.
Any idea what its TGI is? The molecule is CCC1C(c2cc(OC)c(OC)c(OC)c2)c2cc3c(cc2OC1N1CCCC1)OCO3 (stereo not given)
31.8 µM

Any idea what its TGI is? The molecule is COc1c2c(cc3oc(C)cc(=O)c13)OC(=N)C(C(N)=O)C2CC(=O)c1ccc(N)cc1 (stereo not given)
> 100 µM

Any idea what its TGI is? The molecule is CC(=O)C1=CSC2[C@H](NC(=O)Cc3ccccc3)C(=O)N2C1C(=O)OC(c1ccccc1)c1ccccc1 (stereo not given in full)
> 100 µM

Any idea what its TGI is? The molecule is O=S(=O)(c1ccccc1)C(CN1CCCCC1)S(=O)(=O)c1ccccc1
> 100 µM

List TGI for every entry below, keeping the order given.
1. Cc1ccc(N2C(=O)C3c4[nH]c5ccccc5c4C4CCC(C(C)(C)C)CC4C3C2=O)cc1 (stereo not given)
2. O=C(/C(=C/c1ccccc1)CN1CCCCC1)c1ccccc1
3. Cn1cnc2nc(Cl)nc(NC(C)(C)C(C)(C)O)c21

1: 24.7 µM; 2: 4.76 µM; 3: > 100 µM

List TGI for every entry below, keeping the order given.
1. CN(C)c1nc(=Nc2ccc3ccccc3c2)ss1
2. COC1CC(OS(=O)(=O)c2ccc(C)cc2)C(OC(=O)c2ccccc2)C(C)O1 (stereo not given)

1. > 100 µM
2. > 100 µM

List TGI for every entry below, keeping the order given.
1. CC(=O)Nc1ccccc1SCCSSCCSc1ccccc1NC(C)=O
2. O=C1C(=O)c2c(nc3ccc(Cl)cn23)-c2ccccc21
3. COc1cc(OC)c(/C=C2\N=C(C)N(Nc3nnc(NN4C(=O)/C(=C/c5c(OC)cc(OC)cc5OC)N=C4C)c4ccccc34)C2=O)c(OC)c1
4. C/C=C/[P+](c1ccccc1)(c1ccccc1)c1ccccc1
5. CC1(CCC2C=CCC2)CCCNC1=S (stereo not given)

> 100 µM
0.567 µM
> 100 µM
16.5 µM
> 10 µM

List TGI for every entry below, keeping the order given.
1. CC(=O)OC1C(O)COC(O[C@H]2CC[C@]34C[C@]35CC[C@]3(C)C([C@@]6(C)CC[C@@H](C(C)(C)O)O6)[C@@H](O)C[C@@]3(C)C5C[C@H](OC3OCC(O)C(O)C3O)[C@H]4C2(C)C)C1OC1OCC(O)C(O)C1O (stereo not given in full)
2. CC(=O)NC1=C(OS(=O)(=O)c2ccc(C)cc2)CN(C)C1=O

> 100 µM
16.4 µM

====

Task for the reader: assign each of the following compounds its reported GI50.
Tested on: M14 melanoma
Test: NCI tumour cell line growth inhibition, 48 h

Take a look at these entries with their results.
Any idea what its GI50 is? The compound is COc1cc2c(c(OC)c1OC)-c1ncc3cc(OC)c(OC)c(OC)c3c1C2
50700 nM

Any idea what its GI50 is? The compound is O=C(/C(=C/c1ccccc1)CN1CCCCC1)c1ccccc1
1230 nM

Any idea what its GI50 is? The compound is O=C(c1ccccc1)C(CN1CCOCC1)c1ccccc1 (centres undefined)
1660 nM

Please look at the following compound next.
Any idea what its GI50 is? The compound is CC1=C(CCC(C)N(C)Cc2ccc(OCCCN3CCCC3)cc2)C(C)(C)CCC1 (centres undefined)
1750 nM
